# tgt: p38 MAP kinase (Homo sapiens)
# Sequence (Q16539 whole entry): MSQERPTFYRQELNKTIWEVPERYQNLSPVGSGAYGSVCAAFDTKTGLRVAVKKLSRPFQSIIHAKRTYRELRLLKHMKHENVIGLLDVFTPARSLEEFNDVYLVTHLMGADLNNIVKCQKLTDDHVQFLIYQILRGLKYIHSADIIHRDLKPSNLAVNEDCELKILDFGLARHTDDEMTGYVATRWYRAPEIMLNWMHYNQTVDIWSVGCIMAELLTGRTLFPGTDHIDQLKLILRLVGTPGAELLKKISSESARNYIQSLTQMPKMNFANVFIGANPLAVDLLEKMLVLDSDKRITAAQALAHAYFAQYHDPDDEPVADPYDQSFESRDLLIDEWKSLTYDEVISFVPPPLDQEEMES
# procedure.text: p38 (MAP) kinase in vitro assay (transfer of γ-33P from ATP to Myelin Basic Protein)
# condition: phosphorylated recombinant p38 MAP kinase, MBP substrate, γ-33P-ATP, 30° C.
property.measured: IC50

Reported IC50 ( CNC(=O)c1ccc(C)c(-c2cc3[nH]nc(N4CCCCC4)c3n(C)c2=O)c1 [Compound 8] ) = ~3 nM
